B1: TRIM35 (parent)
chain: DKELLCCSCQADPRHQGHRVQPVK

- Variants of: B1
- experimental_protocol: protein stability index of a GFP-peptide fusion (GPS, HEK-293T) (PSI 1-6); higher = more stable;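 also: lentivirally expressed fusions sorted by FACS into six bins by GFP to DsRed ratio, PSI derived from sequencing read proportions per bin multiplied by bin number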
- test_settings: c terminus: a fixed tail appended
Binary classification by protein stability index, with 3 as an inclusive lower bound for class 1; all other cases are class 0.

INSERT INTO measurements (sequence_chain, class_assignment) VALUES
  ('DKLLLCCSCQADPRHQGHRVQPVK [E3L]', 'class 0'),
  ('DKELLCCSCQADPRHQMHRVQPVK [G17M]', 'class 0'),
  ('DKELLCCSCQADPRHQGWRVQPVK [H18W]', 'class 1'),
  ('DKELLCCSCQANPRHQGHRVQPVK [D12N]', 'class 1'),
  ('DKELLCCSCQADPRHQHHRVQPVK [G17H]', 'class 1'),
  ('DKELLCCSCQADPRHQGHRVQPHK [V23H]', 'class 1'),
  ('DKELLCCSCQADPRHQPHRVQPVK [G17P]', 'class 1'),
  ('DKELLCCSCQADPRHQGHYVQPVK [R19Y]', 'class 1');

Reported protein stability index at or above 3? DKELLCCSCQAPPRHQGHRVQPVK [D12P]
class 0

Reported protein stability index at or above 3? DKELLCCSCQADPRHQGHRVQPNK [V23N]
class 1

Reported protein stability index at or above 3? DKEHLCCSCQADPRHQGHRVQPVK [L4H]
class 1
